assay: chemical genetic growth profiling, strain panel (AID 1159580);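 note: tested at 20 µM; growth read once vehicle control cultures reached saturation at 30 °C; 1 = growth at the plate median or of vehicle wells; lower values mean less growth of the strain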; settings: S. cerevisiae deletion strains, growth OD, locus YOR136W, strain idh2, active compounds read low
About 2,000 (36%) of roughly 5,500 compounds were called active. Inconclusive results (about 18%) are left out. The list shows a part of the results.
Assign normalized growth to each entry below.
Numbers only.

compound	readoutKind	numericReadout
Cn1c(=O)c2[nH]cnc2n(C)c1=O	normalized growth	0.986
C=C1C(=O)O[C@@H]2C3O[C@]3(C)CC/C=C(\C)CC[C@@H]12 (some centres not stated)	normalized growth	0.905
C=C1CCC(OC(C)=O)/C(C)=C/C[C@@H]2[C@@H]1CC2(C)C (some centres not stated)	normalized growth	0.997
C=CCCCCCCCCCCCC(O)CC(O)COC(C)=O (configuration not stated) (tested in a mixture with another compound)	normalized growth	0.973
O=S1OCC2C(CO1)C1(Cl)C(Cl)=C(Cl)C2(Cl)C1(Cl)Cl (configuration not stated)	normalized growth	0.98
CCN(CC)C(=O)c1cccc(C)c1	normalized growth	0.999
CCNC(=O)CC[C@H](N)C(=O)O	normalized growth	0.983
C=C1CCC(C2CC(=O)OC2=O)C(=O)CCC2C1CC2(C)C (configuration not stated)	normalized growth	1.01

Can you give me normalized growth for all of these, one by one?
1. CC(=O)OCC(OC(C)=O)C(OC(C)=O)C(OC(C)=O)C(OC(C)=O)C(COC(C)=O)OC(C)=O (configuration not stated)
2. NS(=O)(=O)c1cc2c(cc1Cl)NC(C(Cl)Cl)NS2(=O)=O (configuration not stated)
3. CC[C@H](C)C(=O)O[C@H]1CCC=C2C=C[C@H](C)C(CCC3C[C@@H](O)CC(=O)O3)[C@H]21 (some centres not stated)
4. CC1C[C@H]2CC(=O)[C@H]3CCCN4CCC[C@H]2[C@]34C1 (some centres not stated)
5. O=C1CC2OCC=C3CN4CC[C@]56c7ccccc7N1C5[C@H]2[C@H]3CC46 (some centres not stated)
6. Oc1ccc(Cl)cc1

OUTPUT:
[0.973, 1.01, 0.977, 1.03, 0.985, 0.98]

----------
assay: chemical genetic growth profiling, strain panel (AID 1159580);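 note: tested at 20 µM; growth read once vehicle control cultures reached saturation at 30 °C; 1 = growth at the plate median or of vehicle wells; lower values mean less growth of the strain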; details: S. cerevisiae deletion strains, growth OD, locus YGR252W, strain gcn5, active compounds read low
Screen size: about 5,500 compounds; about 2,000 (36%) were called active. About 18% were inconclusive and are not listed. The list shows a part of the results.
For each entry below, report its normalized growth value.
Answers are plain numbers.

compound	readoutKind	numericReadout
COC(=O)C[C@H]1C(C)(C)C(=O)[C@@H]2CC3=C(CC[C@]4(C)C3=CC(=O)O[C@H]4c3ccoc3)[C@@]1(C)C2=O	normalized growth	1
COC(=O)C(O)c1ccccc1 (stereo unspecified)	normalized growth	1.02
CC(=O)Oc1c(C)cccc1C(=O)O	normalized growth	1
OC(Cn1cncn1)(Cn1cncn1)c1ccc(F)cc1F	normalized growth	1

# batch size: 2; output normalized growth per entry
1. CC(=O)N[C@@H](CS)C(=O)O
2. CC(C(=O)O)c1ccc(C(=O)c2cccs2)cc1 (stereo unspecified)

OUTPUT:
1: 0.999; 2: 1

----------
assay: chemical genetic growth profiling, strain panel (AID 1159580);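 note: tested at 20 µM; growth read once vehicle control cultures reached saturation at 30 °C; 1 = growth at the plate median or of vehicle wells; lower values mean less growth of the strain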; conditions: S. cerevisiae deletion strains, growth OD, locus YDR150W, strain NUM1
Among all 5,500 compounds or so, about 2,000 (36%) were called active. Another 18% or so got no clear call; they are omitted. Rule as the data show it: active = normalized growth mostly below about 0.91 (no sharp cut-off); inconclusive = no clear call, values can overlap the other calls; inactive = mostly above about 0.92. Some of the results follow.
Form entry, call: pick from true = active, false = inactive

// below: answered molecules
molecule	qualitativeLabel
c1ccc(-c2cc3c(nn2)CCc2nonc2-3)cc1	false
O=S1OCC2C(CO1)C1(Cl)C(Cl)=C(Cl)C2(Cl)C1(Cl)Cl (configuration not stated)	false
N#Cc1ncc(C(F)(F)F)cc1Oc1ccc(Cl)cc1	true
CC(=O)c1cnn(-c2ccccc2)c1C	false
Cc1cccc2c1N(C(=S)Nc1ccccc1Cl)CCC2	false
CC(=O)CC(=O)Nc1ccccc1Cl	false

Here's the next entry for you.
INPUT: Can you look up the reported call for C=CCCCCCCCCCCCC(O)CC(O)COC(C)=O (configuration not stated) (tested in a mixture with another compound) for me?
OUTPUT: false
